Attribution: the supplement of paper PMC10646978

- System: RAW-Dual (murine macrophage reporter line)
- ASSAY_METHOD_TEXT: IRF reporter (Lucia luciferase) activity fold change vs agonist alone; higher = enhanced IRF activity
- RUN_CONDITIONS: modulator concentration 10 µM; agonist: 3'3'-cGAMP 10 ug/mL
QUANTITY: IRF reporter
The response must contain the number and no unit.

Recorded IRF reporter, per entry:
- COMPOUND: "COc1ccc(CNC23CC4CC(CC(C4)C2)C3)cc1OC"
  QUANTITY: "IRF reporter"
  QUANTITATIVE_READOUT: 0.959
- COMPOUND: "Oc1ccc(Cl)cc1-c1nc2ccccc2s1"
  QUANTITY: "IRF reporter"
  QUANTITATIVE_READOUT: 1.09

Record summary for CC(C)OCc1ccc(C(=O)Nc2nnc(C(C)C)s2)o1 : reported IRF reporter = 0.986

Record summary for Cc1c(NC(=S)NC(=O)c2ccccc2[N+](=O)[O-])cccc1-c1nc2ccccc2s1 : reported IRF reporter = 0.88

Record summary for CCCCCCC1OCC2(CO)C(C)C=C(C)C1C2C (stereo not drawn) : reported IRF reporter = 1.31

Record summary for Oc1ccc(N=Cc2ccccc2O)cc1 : reported IRF reporter = 0.491

Record summary for CC1SC(c2ccccc2)NC1=O (stereo not drawn) : reported IRF reporter = 0.791

Record summary for O=C(O)c1cc(O)c(O)c(O)c1 : reported IRF reporter = 0.594

* * *

- Tested on: RAW-Dual (murine macrophage reporter line)
- ASSAY_METHOD_TEXT: IRF reporter (Lucia luciferase) activity fold change vs agonist alone; higher = enhanced IRF activity
- RUN_CONDITIONS: modulator concentration 10 µM; agonist: MPLA […]
Listing of recorded IRF reporter by entry.
The response must contain the number and no unit.

Recorded IRF reporter, per entry:
- COMPOUND: "CC1(C)Cc2ccccc2C(C[N+](=O)[O-])=N1"
  IRF reporter: 1.38
- COMPOUND: "O=C(NCC1(O)Cc2ccccc2C1)c1cccc(Br)c1"
  IRF reporter: 1.32
- COMPOUND: "COC(=O)c1cc(OC)c(=O)c2c(OC)c(OC)ccc2c1"
  IRF reporter: 0.884
- COMPOUND: "Br.O=S(=O)(c1ccc(-c2csc(Nc3ccc(Br)cc3)n2)cc1)N1CCOCC1"
  IRF reporter: 0.903
- COMPOUND: "COC(=O)Nc1nc2ccc(S(=O)c3ccccc3)cc2[nH]1 (stereo not given)"
  IRF reporter: 0.536

Record summary for O=[N+]([O-])c1cc(C(O)(C(F)(F)F)C(F)(F)F)cc([N+](=O)[O-])c1Cl : reported IRF reporter = 0.97

Record summary for Cc1ncsc1C(=O)NC1CCC(F)(F)CC1 : reported IRF reporter = 1

Record summary for c1ccc(CN2CCN(c3cc(-c4cccnc4)n[nH]3)CC2)cc1 : reported IRF reporter = 1.56

Record summary for C[C@]1(O)C[C@@H](c2nc(-c3ccc4ccc(-c5ccccc5)nc4c3)c3c(N)nccn32)C1 : reported IRF reporter = 0.958

Record summary for CCC(c1ccc(O)cc1)C(CC)c1ccc(O)cc1 (stereo not given) : reported IRF reporter = 1.06

* * *

- Test system: RAW-Dual (murine macrophage reporter line)
- ASSAY_METHOD_TEXT: IRF reporter (Lucia luciferase) activity fold change vs agonist alone; higher = enhanced IRF activity
- RUN_CONDITIONS: modulator concentration 10 µM; agonist: 3'3'-cGAMP 10 ug/mL
I would appreciate it if you labelled entries 1 when IRF reporter is 0.9 or higher, otherwise 0.

- COMPOUND: "CN(C)C/C=C/C(=O)Nc1cc2c(Nc3ccc(F)c(Cl)c3)ncnc2cc1O[C@H]1CCOC1.O=C(O)/C=C\\C(=O)O.O=C(O)/C=C\\C(=O)O"
  LABEL: 0
- COMPOUND: "Br.CN(C)CCCC1(c2ccc(F)cc2)OCc2cc(C#N)ccc21 (stereo not drawn)"
  LABEL: 0
- COMPOUND: "COc1cc(C(C)=O)ccc1OCCCN1CCC(c2noc3cc(F)ccc23)CC1"
  LABEL: 0

(Q) Hi team, for C=CCNc1oc(Cc2cccc3ccccc23)nc1C#N , is the recorded IRF reporter at or above 0.9?
(A) 0

(Q) Hi team, for CCCCCOC(=O)COc1ccc(S(=O)(=O)c2ccc(OCC(=O)OCCCCC)cc2)cc1 , is the recorded IRF reporter at or above 0.9?
(A) 1

(Q) Hi team, for CC1=C(CC(=O)O)c2cc(F)ccc2/C1=C\c1ccc(S(C)=O)cc1 (stereo not drawn) , is the recorded IRF reporter at or above 0.9?
(A) 1

(Q) Hi team, for Clc1ccc(C=NNc2cc(N3CCCC3)nc(N3CCCC3)n2)c(Cl)c1 , is the recorded IRF reporter at or above 0.9?
(A) 1

(Q) Hi team, for CC(=O)NO , is the recorded IRF reporter at or above 0.9?
(A) 0

* * *

- System: RAW-Dual (murine macrophage reporter line)
- ASSAY_METHOD_TEXT: IRF reporter (Lucia luciferase) activity fold change vs agonist alone; higher = enhanced IRF activity
- RUN_CONDITIONS: modulator concentration 10 µM; agonist: MPLA […]
QUANTITY: IRF reporter
The response must contain the number and no unit.

- COMPOUND: "NC(=O)c1ncn([C@@H]2O[C@H](CO)[C@@H](O)[C@H]2O)c1N"
  TESTED_TARGET: "RAW-Dual (murine macrophage reporter line)"
  IRF reporter: 0.949
- COMPOUND: "O=C(O)c1ccc(-n2nc(-c3ccccc3O)nc2-c2ccccc2O)cc1"
  TESTED_TARGET: "RAW-Dual (murine macrophage reporter line)"
  IRF reporter: 1.49
- COMPOUND: "O=C(NCC(O)c1ccc(C(F)(F)F)cc1)c1cc(Br)cs1 (stereo unspecified)"
  TESTED_TARGET: "RAW-Dual (murine macrophage reporter line)"
  IRF reporter: 1.22
- COMPOUND: "Cc1cc(Cl)ccc1OCCCC(=O)NO"
  TESTED_TARGET: "RAW-Dual (murine macrophage reporter line)"
  IRF reporter: 0.553
- COMPOUND: "CCSC1=C(C#N)C2(CCCC2)C(C#N)C(=O)N1 (stereo unspecified)"
  TESTED_TARGET: "RAW-Dual (murine macrophage reporter line)"
  IRF reporter: 1.42
- COMPOUND: "CC1CCC2C(C)(C)C3CC12CCC3(C)O (stereo unspecified)"
  TESTED_TARGET: "RAW-Dual (murine macrophage reporter line)"
  IRF reporter: 1.25

Record summary for O=C(NC(Cc1cc(=O)[nH]c2ccccc12)C(=O)O)c1ccc(Cl)cc1 (stereo unspecified) : reported IRF reporter = 1.09

Record summary for COc1cc(C2CC3CC2C(C)C3(C)C)ccc1O (stereo unspecified) : reported IRF reporter = 1.34

Record summary for Cn1ncc(Cl)c1-c1cc(C(=O)N[C@H](CN)Cc2cccc(F)c2)sc1Cl : reported IRF reporter = 1.79

Record summary for CCOC(=O)n1ccn(C)c1=S : reported IRF reporter = 1.11

Record summary for CN1CCN(C(=O)N2CCC3(CC2)CC3(F)F)CC1 : reported IRF reporter = 0.815

Record summary for Cc1cc(OCC(=O)NC2CC(C)(C)NC(C)(C)C2)ccc1Br : reported IRF reporter = 1.55

Record summary for CC(Nc1ccc(N)cc1)=C1C(=O)c2ccccc2C1=O : reported IRF reporter = 1.68

Record summary for CCCCCCc1cc2cc(-c3nc(-c4ccc(Oc5ccccc5)cc4)cs3)c(=O)oc2cc1O : reported IRF reporter = 1.12

Record summary for Cc1cc(C(=O)N2CCC(Oc3cccc4cccnc34)CC2)c(C)o1 : reported IRF reporter = 1.07

Record summary for CCOC(=O)c1c(C)n(-c2ccccc2)c2ccc(NS(=O)(=O)c3ccccc3)cc12 : reported IRF reporter = 1.21

Record summary for CN(C)C(=O)COC(=O)Cc1ccc(OC(=O)c2ccc(NC(=N)N)cc2)cc1.CS(=O)(=O)O : reported IRF reporter = 1.25

Record summary for c1ccc(C2=Nc3ccccc3N=C(c3ccccc3)c3ccccc32)cc1 : reported IRF reporter = 1.01

Record summary for Cc1ccc(C2C=C(c3ccccc3)Nc3ncnn32)cc1 (stereo unspecified) : reported IRF reporter = 1.23

Record summary for Oc1ccc(C=Cc2cc(O)cc(O)c2)cc1 : reported IRF reporter = 0.403

Record summary for COc1ccc(OC)c(C=NNC(=O)c2cc(C)oc2C)c1 : reported IRF reporter = 1.25

Record summary for CC(C)NCC(O)COc1ccc(CCOCC2CC2)cc1 (stereo unspecified) : reported IRF reporter = 0.764

Record summary for c1ccc(CSc2nnc(-c3ccncc3)o2)cc1 : reported IRF reporter = 0.501

* * *

- System: RAW-Dual (murine macrophage reporter line)
- ASSAY_METHOD_TEXT: NF-kB reporter (SEAP) activity fold change vs agonist alone; higher = enhanced NF-kB activity
- RUN_CONDITIONS: modulator concentration 10 µM; agonist: CpG ODN 1826 0.5 ug/mL
Listing of recorded NF-kB reporter by entry.
The response must contain the number and no unit.

- COMPOUND: "O=C1C(N2CCC(O)C2)CCN1CC(F)(F)F (stereo not drawn)"
  NF-kB reporter: 0.992
- COMPOUND: "Cc1ccc(Sc2cc(Sc3ccc(C)cc3)c3noc4c3c2C(=O)c2ccccc2-4)cc1"
  NF-kB reporter: 0.971
- COMPOUND: "COc1ccccc1OCC(O)CN1CCN(CC(=O)Nc2c(C)cccc2C)CC1.Cl.Cl (stereo not drawn)"
  NF-kB reporter: 0.724

Kindly consider the entry below.
Kindly note: RAW-Dual (murine macrophage reporter line), O=C(NCC1CCCO1)c1[nH]nnc1-c1ccc(F)cc1 (stereo not drawn) , NF-kB reporter value reported: 1.15
